- Test system: HCT116 human colorectal carcinoma cells
- Test Description: CellTiter-Glo Luminescent Cell Viability Assay
- Type: cell-based
- Experimental Parameters: HCT-116, 72 h, 3 days
Measured EC50 by item
Readout Kind: EC50

1. NC(=O)Cn1cc(S(=O)(=O)n2cc(S(=O)(=O)Nc3cccc4c(Cl)c[nH]c34)cn2)cn1 [Compound 17] :: 250 to 1000 nM
2. Cc1ccc(NS(=O)(=O)c2cnn(C)c2F)c2[nH]cc(C#N)c12 [Compound 112] :: 250 to 1000 nM
3. Cc1ccc(NS(=O)(=O)c2cnn(C3COC3)c2F)c2[nH]cc(C#N)c12 [Compound 144] :: 250 to 1000 nM
4. Cc1ccc(NS(=O)(=O)c2cnn(CF)c2)c2[nH]nc(C#N)c12 [Compound 305] :: 250 to 1000 nM
5. Cc1ccc(NS(=O)(=O)c2cnn(C(C)(C)C)c2)c2[nH]cc(C#N)c12 [Compound 94] :: < 250 nM
6. O=S(=O)(Nc1cccc2c(Cl)c[nH]c12)c1cnn(S(=O)(=O)c2cn[nH]c2)c1 [Compound 19] :: 250 to 1000 nM
7. O=S(=O)(Nc1ccc(C(F)(F)F)c2c(Cl)c[nH]c12)c1cnn(CC(F)F)c1 [Compound 103] :: > 1000 nM
8. CCn1cc(S(=O)(=O)Nc2ccc(C)c3c(C#N)c[nH]c23)c(N)n1 [Compound 290] :: < 250 nM
9. N#Cc1c[nH]c2c(NS(=O)(=O)c3cnn(CC4(F)CNC4)c3)ccc(Cl)c12 [Compound 256] :: > 1000 nM
10. COCC(CO)n1cc(S(=O)(=O)Nc2ccc(Cl)c3c(C#N)c[nH]c23)cn1 (centres unmarked) [Compound 262] :: 250 to 1000 nM
11. Cc1ccc(NS(=O)(=O)c2cnn(CCCO)c2)c2[nH]cc(C#N)c12 [Compound 210] :: 250 to 1000 nM
12. Cc1ccc(NS(=O)(=O)c2cnn(C3CCNC3=O)c2)c2[nH]cc(C#N)c12 (centres unmarked) [Compound 146] :: > 1000 nM
13. Cc1ccc(NS(=O)(=O)c2cnn(C(C)(C)CCO)c2)c2[nH]cc(C#N)c12 [Compound 229] :: < 250 nM
14. O=S(=O)(Nc1ccc(Cl)c2c(Cl)c[nH]c12)c1cnn(C(CO)CO)c1 [Compound 176] :: 250 to 1000 nM
15. N#Cc1c[nH]c2c(NS(=O)(=O)c3cnn(C(F)F)c3)ccc(Cl)c12 [Compound 119] :: < 250 nM
16. Cc1ccc(NS(=O)(=O)c2cnn(C3CCN(CC(F)(F)F)CC3)c2)c2[nH]cc(C#N)c12 [Compound 87] :: > 1000 nM
17. C=C(CF)n1cc(S(=O)(=O)Nc2ccc(C)c3c(C#N)c[nH]c23)cn1 [Compound 80] :: < 250 nM

* * *

- Tested on: HCT116 human colorectal carcinoma cells
- Test Description: CellTiter-Glo Luminescent Cell Viability Assay
- Type: cell-based
- Experimental Parameters: HCT-116, 72 h, 3 days
pEC50: −log10 of the molar value.
Readout Kind: pEC50

1) CCn1cc(S(=O)(=O)Nc2ccc(C)c3c(C#N)c[nH]c23)cn1 :: > 6.60
2) CC(C)(C)OC(=O)N1CCC(n2cc(S(=O)(=O)Nc3cccc4c(Cl)c[nH]c34)cn2)CC1 :: < 6.00
3) Cc1ccc(NS(=O)(=O)c2cnn(CC3CCC3)c2)c2[nH]cc(C#N)c12 :: 6.00 to 6.60
4) C[C@H](O)[C@@H](C)n1cc(S(=O)(=O)Nc2ccc(Cl)c3c(C#N)c[nH]c23)cn1 :: 6.00 to 6.60
5) N#Cc1c[nH]c2c(NS(=O)(=O)c3cnn(CF)c3)ccc(F)c12 :: 6.00 to 6.60
6) Cc1ccc(NS(=O)(=O)c2cn(C(C)(C)CO)nc2Cl)c2[nH]cc(C#N)c12 :: 6.00 to 6.60
7) COC(=O)C(C)(C)n1cc(S(=O)(=O)Nc2ccc(Cl)c3c(C#N)c[nH]c23)cn1 :: 6.00 to 6.60
8) C[C@H](CO)n1cc(S(=O)(=O)Nc2ccc(F)c3c(C#N)c[nH]c23)cn1 :: 6.00 to 6.60
9) CC1(Cn2cc(S(=O)(=O)Nc3cccc4c(Cl)c[nH]c34)cn2)CS(=O)(=O)C1 :: 6.00 to 6.60
10) Cc1ccc(NS(=O)(=O)c2cnn(-c3ccc(C(F)(F)F)cn3)c2)c2[nH]cc(C#N)c12 :: < 6.00
11) CCn1ncc(S(=O)(=O)Nc2ccc(Cl)c3c(C#N)c[nH]c23)c1N :: > 6.60
12) Cc1ccc(NS(=O)(=O)c2cnn(CC(N)=O)c2)c2[nH]cc(C#N)c12 :: < 6.00
13) Cc1ccc(NS(=O)(=O)c2cnn(C(F)(F)CO)c2)c2[nH]cc(C#N)c12 :: > 6.60
14) C[C@@H](CO)n1cc(S(=O)(=O)Nc2ccc(Cl)c3c(C#N)c[nH]c23)cn1 :: 6.00 to 6.60
15) CC(C)(O)CCn1cc(S(=O)(=O)Nc2ccc(F)c3c(C#N)c[nH]c23)cn1 :: 6.00 to 6.60
16) C[C@@H](O)[C@H](C)n1cc(S(=O)(=O)Nc2ccc(Cl)c3c(C#N)c[nH]c23)cn1 :: 6.00 to 6.60
17) COC1CC(n2cc(S(=O)(=O)Nc3cccc4c(Cl)c[nH]c34)cn2)C1 (centres unmarked) :: 6.00 to 6.60

* * *

// pEC50 lookup, one value per entry
- System: HCT116 human colorectal carcinoma cells
- Test Description: CellTiter-Glo Luminescent Cell Viability Assay
- Assay type: cell-based
- Experimental Parameters: HCT-116, 72 h, 3 days
pEC50: −log10 of the molar value.
Readout Kind: pEC50

1. Cc1ccc(NS(=O)(=O)c2cnn(C3CCOC3)c2)c2[nH]cc(C#N)c12 (centres unmarked) :: 6.00 to 6.60
2. Cc1ccc(NS(=O)(=O)c2cnn([C@@H](CO)CF)c2)c2[nH]cc(C#N)c12 :: 6.00 to 6.60
3. N#CC1(Cn2cc(S(=O)(=O)Nc3cccc4c(Cl)c[nH]c34)cn2)CC1 :: 6.00 to 6.60
4. N#Cc1c[nH]c2c(NS(=O)(=O)c3cnn([C@H]4CNC[C@H]4F)c3)ccc(Cl)c12 :: < 6.00
5. CC(C)(CCO)n1cc(S(=O)(=O)Nc2ccc(Cl)c3c(C#N)c[nH]c23)cn1 :: > 6.60
6. O=S(=O)(Nc1ccc(Cl)c2c(Cl)c[nH]c12)c1cnn(C2COC2)c1 :: > 6.60
7. Cc1ccc(NS(=O)(=O)c2cnn(CCC(C)(C)O)c2)c2[nH]cc(C#N)c12 :: > 6.60
8. CC(C)(O)Cn1cc(S(=O)(=O)Nc2ccc(Cl)c3c(C#N)c[nH]c23)cn1 :: 6.00 to 6.60
9. CC(C)(CO)n1ncc(S(=O)(=O)Nc2ccc(F)c3c(C#N)c[nH]c23)c1Cl :: 6.00 to 6.60
10. Cc1nn(C)cc1S(=O)(=O)Nc1ccc(C)c2c(C#N)c[nH]c12 :: 6.00 to 6.60
11. Cc1ccc(NS(=O)(=O)c2cnn(S(=O)(=O)c3ccccc3)c2)c2[nH]cc(C#N)c12 :: 6.00 to 6.60
12. CC(C)n1cc(S(=O)(=O)Nc2cccc3c(Cl)c[nH]c23)cn1 :: 6.00 to 6.60
13. Cc1ccc(NS(=O)(=O)c2cnn(CC3(F)CNC3)c2)c2[nH]cc(C#N)c12 :: 6.00 to 6.60
14. Cc1ccc(NS(=O)(=O)c2cnn(CF)c2N)c2[nH]cc(C#N)c12 :: 6.00 to 6.60
15. N#Cc1c[nH]c2c(NS(=O)(=O)c3cnn(C45CC(C4)C5)c3)ccc(F)c12 :: 6.00 to 6.60
16. Cc1ccc(NS(=O)(=O)c2cnn([C@H]3CNC[C@H]3F)c2)c2[nH]cc(C#N)c12 :: < 6.00
17. Cc1ccc(NS(=O)(=O)c2cnn(C[C@H](N)C(F)(F)F)c2)c2[nH]cc(C#N)c12 :: 6.00 to 6.60

* * *

Here, each record is paired with measured pIC50 data.
- Study System: DDB1DB/DCAF15 and RBM39 R1R2 complex (Homo sapiens, UniProt Q14498+Q66K64)
- Construct: Amino acids 150 to 331 of RBM39 were cloned into pGEX4T3; GST (from vector pGEX4T3); TEV cleavage site (N); RBM39 R1R2: E. coli (pGEX4T3)
- Sequence (Q66K64 whole entry, the tested form may be a part): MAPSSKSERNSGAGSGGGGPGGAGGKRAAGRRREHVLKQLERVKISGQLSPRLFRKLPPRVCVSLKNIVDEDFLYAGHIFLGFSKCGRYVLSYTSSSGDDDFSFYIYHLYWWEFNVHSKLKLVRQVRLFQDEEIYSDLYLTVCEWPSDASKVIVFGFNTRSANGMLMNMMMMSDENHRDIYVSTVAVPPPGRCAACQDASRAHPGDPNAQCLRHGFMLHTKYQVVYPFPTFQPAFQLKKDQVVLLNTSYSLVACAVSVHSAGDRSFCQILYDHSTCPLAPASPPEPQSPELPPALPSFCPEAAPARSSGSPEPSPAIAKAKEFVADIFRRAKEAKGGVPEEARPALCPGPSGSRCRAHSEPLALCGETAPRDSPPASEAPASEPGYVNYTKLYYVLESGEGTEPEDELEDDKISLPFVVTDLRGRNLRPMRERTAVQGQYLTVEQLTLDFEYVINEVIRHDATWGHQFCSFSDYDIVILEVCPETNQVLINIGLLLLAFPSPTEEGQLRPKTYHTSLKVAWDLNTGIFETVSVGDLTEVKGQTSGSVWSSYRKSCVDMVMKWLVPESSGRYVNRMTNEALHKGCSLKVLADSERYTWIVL
- Sequence (Q14498 150-331): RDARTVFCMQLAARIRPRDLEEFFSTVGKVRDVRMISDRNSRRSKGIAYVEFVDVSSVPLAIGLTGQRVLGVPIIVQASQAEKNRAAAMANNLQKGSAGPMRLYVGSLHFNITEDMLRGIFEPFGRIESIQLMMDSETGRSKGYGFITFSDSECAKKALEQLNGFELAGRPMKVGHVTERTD
- Sequence (Q16531 with tags, fused parts or gaps DEL396-708 partner): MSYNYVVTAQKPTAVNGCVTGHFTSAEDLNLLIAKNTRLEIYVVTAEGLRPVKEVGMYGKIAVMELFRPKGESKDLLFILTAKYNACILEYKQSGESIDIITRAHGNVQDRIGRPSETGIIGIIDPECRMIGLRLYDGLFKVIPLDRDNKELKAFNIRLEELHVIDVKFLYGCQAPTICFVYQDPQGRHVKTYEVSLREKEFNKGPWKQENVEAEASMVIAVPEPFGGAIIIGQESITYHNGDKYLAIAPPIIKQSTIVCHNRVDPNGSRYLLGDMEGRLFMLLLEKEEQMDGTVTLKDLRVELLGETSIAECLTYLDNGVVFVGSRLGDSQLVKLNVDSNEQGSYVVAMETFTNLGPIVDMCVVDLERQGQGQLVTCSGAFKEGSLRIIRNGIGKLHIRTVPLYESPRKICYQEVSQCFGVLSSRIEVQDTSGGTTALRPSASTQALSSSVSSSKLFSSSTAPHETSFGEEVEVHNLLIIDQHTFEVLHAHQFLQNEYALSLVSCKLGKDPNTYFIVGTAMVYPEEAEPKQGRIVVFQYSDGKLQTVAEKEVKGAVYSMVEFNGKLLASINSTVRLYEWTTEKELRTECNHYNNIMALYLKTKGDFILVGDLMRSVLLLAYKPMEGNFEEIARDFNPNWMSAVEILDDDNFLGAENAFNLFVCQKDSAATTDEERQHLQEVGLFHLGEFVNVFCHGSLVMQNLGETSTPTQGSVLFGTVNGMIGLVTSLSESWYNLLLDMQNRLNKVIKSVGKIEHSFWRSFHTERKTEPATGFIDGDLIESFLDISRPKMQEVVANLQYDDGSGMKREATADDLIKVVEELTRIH
- Test Description: DCAF15 RBM39 Complex Formation Assay (FRET)
- Experimental Parameters: FRET ratio Em 665/Em 615, incubated overnight at 4° C.
pIC50: −log10 of the molar value.
Readout Kind: pIC50

1. C[C@@H](O)Cn1cc(S(=O)(=O)Nc2ccc(Cl)c3c(C#N)c[nH]c23)cn1 [Compound 197] :: > 6.60
2. Cn1cc(S(=O)(=O)Nc2cccc3c(Cl)c(F)[nH]c23)cn1 [Compound 129] :: > 6.60
3. Cc1ccc(NS(=O)(=O)c2cnn([C@H](C)CF)c2)c2[nH]cc(C#N)c12 [Compound 281] :: > 6.60
4. Cc1ccc(NS(=O)(=O)c2cnn(CCCO)c2)c2[nH]cc(C#N)c12 [Compound 210] :: > 6.60
5. N#Cc1c[nH]c2c(NS(=O)(=O)c3cnn(C(F)CO)c3)ccc(F)c12 (centres unmarked) [Compound 298] :: > 6.60
6. Cc1ccc(NS(=O)(=O)c2cnn(CC(C)(C)S(C)(=O)=O)c2)c2[nH]cc(C#N)c12 [Compound 84] :: > 6.60
7. CS(=O)(=O)CCn1cc(S(=O)(=O)Nc2cccc3c(Cl)c[nH]c23)cn1 [Compound 9] :: > 6.60
8. O=S(=O)(Nc1cccc2c(Cl)c[nH]c12)c1cnn(C2COC2)c1 [Compound 40] :: > 6.60

Hey, just so you know, these numbers are from patent US20250368627A1.
